Test system: DLO-1 (colon)
TEST_METHOD_NOTES: Antineoplastic assessment, SRB assay, DLO-1
Type: cell-based
ASSAY_SETUP: 120 h, read-out: IC50 Molar Values
Procedure: Cell Lines. Cell lines indicated in table 2 were propagated under sterile conditions in RPMI 1640 or DMEM with 10% fetal calf serum, 2 mM L-glutamine, and sodium bicarbonate (“complete medium”) and incubated at 37° C. 5% CO2 and 95% humidity. […] The cell count was determined and viability was measured with propidium iodide staining. […] Five days after treatment, the cells were analyzed for antineoplastic effects using the SRB assay to calculate IC50 for each treatment.
READOUT_KIND: IC50 (µM)
Give just the numeric value; µM need not be written.

Problem: Entry CC(C)CCCC(C)(C)c1cc(O)cc(O)c1 needs its IC50 filled in; supply it.
Result: 90
